Item-by-item account of kon
Biological target: feline FcRn (FCN-F82W3, Acrobiosystems) (feline)
Assay: SPR Carterra, IgG coupled, pH 6.0
Provide the reading as a plain figure in M⁻¹ s⁻¹.

BINDER	kon [M⁻¹ s⁻¹]
anti-NGF feline IgG1a, Fc variant Q311L (antibody, part only; not given: anti-NGF variable domains, light chain, not shown: another chain or arm of the molecule; small tags and cut ends) Fc: PPEMLGGPSIFIFPPKPKDTLSISRTPEVTCLVVDLGPDDSDVQITWFVDNTQVYTAKTSPREEQFNSTYRVVSVLPILHLDWLKGKEFKCKVNSKSLPSPIERTISKAKGQPHEPQVYVLPPAQEELSRNKVSVTCLIKSFHPPDIAVEWEITGQPEPENNYRTTPPQLDSDGTYFVYSKLSVDRSHWQRGNTYTCSVSHEALHSHHTQKSLTQSPGK	565000

Now turn to the next binder.
Input: For anti-NGF feline IgG1a, Fc variant T286E (antibody, part only; not given: anti-NGF variable domains, light chain, not shown: another chain or arm of the molecule; small tags and cut ends) Fc: PPEMLGGPSIFIFPPKPKDTLSISRTPEVTCLVVDLGPDDSDVQITWFVDNTQVYEAKTSPREEQFNSTYRVVSVLPILHQDWLKGKEFKCKVNSKSLPSPIERTISKAKGQPHEPQVYVLPPAQEELSRNKVSVTCLIKSFHPPDIAVEWEITGQPEPENNYRTTPPQLDSDGTYFVYSKLSVDRSHWQRGNTYTCSVSHEALHSHHTQKSLTQSPGK , write its kon.
Output: 489000
